procedure details: Confirmatory laboratory extraction of a synthetic inhibitor/sugar mixture
Assay type: physicochemical
condition description: 5 mL synthetic solution + 5 mL solvent, 20° C., HPLC
laboratory extraction yield, Furfural reference

Previously resolved entries follow.
CCCCCCCCO [1-octanol] ... 0.728^3
CCCCCCCCCCO [1-decanol] ... 0.666^3
CCCC(=O)OCC [ethyl butyrate] ... 0.937^3
CC(C)CC(O)CC(C)C [2,6-dimethyl-4-heptanol] ... 0.593^3
CCCCC(CC)CO (stereo not shown) [2-ethyl-1-hexanol] ... 0.669^3
CCCCCCCCCCCCO [1-dodecanol] ... 0.593^3
CCCCCCC(=O)CC [3-nonanone] ... 0.895^3
CC(=O)c1ccccc1 [Acetophenone] ... 0.917^3

Recorded laboratory extraction yield, Furfural (compound O=Cc1ccccc1 [benzaldehyde] ): 1.114^3

Sure, the documented laboratory extraction yield, Furfural for CCCCCCC(C)O (stereo not shown) [2-octanol] is 0.687^3
